Entries and their pKd
- assayed.target: T1, human CD3 E&D complex protein (Sino Biological Inc., CT026H0323H) (human, UniProt P07766 23-126; P04234 22-105)
- T1 construct: bought heterodimer; also called human CD3 protein (CT026H0323H)
- T1 sequence (P07766 23-126, chain 1 of 2): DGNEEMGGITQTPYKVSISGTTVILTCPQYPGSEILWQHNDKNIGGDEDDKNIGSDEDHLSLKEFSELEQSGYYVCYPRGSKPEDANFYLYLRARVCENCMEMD
- T1 sequence (P04234 22-105, chain 2 of 2): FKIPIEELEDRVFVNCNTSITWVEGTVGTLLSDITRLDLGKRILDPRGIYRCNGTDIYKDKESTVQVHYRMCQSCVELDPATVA
- test.details: BLI, antibody on sensor
pKd: −log10 of the molar value.

>  <binder>
hzsp34.104 (antibody, human IgG1, lambda, L234A L235A, V domains shown, CDR mutant of hzsp34.24; IgG1 L234A L235A, lambda) VH: EVQLVESGGGLVQPGGSLKLSCAASGFTFNTYAMNWVRQASGKGLEWVGRIRSKYNNYATYYADSVKDRFTISRDDSKSTLYLQMNSLKTEDTAVYYCARHGNFGQSYVSWFAYWGQGTTVTVSS VL: QAVVTQEPSLTVSPGGTVTLTCRSSTGAVTGSNYANWVQQKPGQAPRGLIGGTNKRAPGVPARFSGSLLGDKAALTLLGAQPEDEAEYYCALWYSNLWVFGQGTKLTVLG

>  <pKd>
8.71

$$$$
>  <binder>
hzsp34.115 (antibody, human IgG1, lambda, L234A L235A, V domains shown, CDR mutant of hzsp34.24; IgG1 L234A L235A, lambda) VH: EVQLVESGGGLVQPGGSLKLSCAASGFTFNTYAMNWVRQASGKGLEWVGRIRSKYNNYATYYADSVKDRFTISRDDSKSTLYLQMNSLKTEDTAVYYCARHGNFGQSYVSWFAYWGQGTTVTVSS VL: QAVVTQEPSLTVSPGGTVTLTCRSSTGAVTTSNYANWVQQKPGQAPRGLIGGTNSRAPGVPARFSGSLLGDKAALTLLGAQPEDEAEYYCALWYSNLWVFGQGTKLTVLG

>  <pKd>
8.90

$$$$
>  <binder>
hzsp34.116 (antibody, human IgG1, lambda, L234A L235A, V domains shown, CDR mutant of hzsp34.24; IgG1 L234A L235A, lambda) VH: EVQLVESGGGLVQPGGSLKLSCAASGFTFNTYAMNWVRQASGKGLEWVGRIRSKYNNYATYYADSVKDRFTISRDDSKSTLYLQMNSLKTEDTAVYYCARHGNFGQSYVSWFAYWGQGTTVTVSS VL: QAVVTQEPSLTVSPGGTVTLTCRSSTGAVTTSNYANWVQQKPGQAPRGLIGGTNSRAPGVPARFSGSLLGDKAALTLLGAQPEDEAEYYCALWYSDLWVFGQGTKLTVLG

>  <pKd>
8.39

$$$$
